FYI, the data here is from ChEMBL document CHEMBL3872247.

# measurement target: Metabotropic glutamate receptor 2 (Homo sapiens, UniProt Q14416)
# assay summary: Agonist activity at recombinant human mGlu2 receptor expressed in hamster AV12 cells expressing EAAT1 assessed as increase in intracellular calcium level measured after 24 to 48 hrs by FLIPR assay
# Format: functional, cell-based
# Sequence (Q14416 whole entry): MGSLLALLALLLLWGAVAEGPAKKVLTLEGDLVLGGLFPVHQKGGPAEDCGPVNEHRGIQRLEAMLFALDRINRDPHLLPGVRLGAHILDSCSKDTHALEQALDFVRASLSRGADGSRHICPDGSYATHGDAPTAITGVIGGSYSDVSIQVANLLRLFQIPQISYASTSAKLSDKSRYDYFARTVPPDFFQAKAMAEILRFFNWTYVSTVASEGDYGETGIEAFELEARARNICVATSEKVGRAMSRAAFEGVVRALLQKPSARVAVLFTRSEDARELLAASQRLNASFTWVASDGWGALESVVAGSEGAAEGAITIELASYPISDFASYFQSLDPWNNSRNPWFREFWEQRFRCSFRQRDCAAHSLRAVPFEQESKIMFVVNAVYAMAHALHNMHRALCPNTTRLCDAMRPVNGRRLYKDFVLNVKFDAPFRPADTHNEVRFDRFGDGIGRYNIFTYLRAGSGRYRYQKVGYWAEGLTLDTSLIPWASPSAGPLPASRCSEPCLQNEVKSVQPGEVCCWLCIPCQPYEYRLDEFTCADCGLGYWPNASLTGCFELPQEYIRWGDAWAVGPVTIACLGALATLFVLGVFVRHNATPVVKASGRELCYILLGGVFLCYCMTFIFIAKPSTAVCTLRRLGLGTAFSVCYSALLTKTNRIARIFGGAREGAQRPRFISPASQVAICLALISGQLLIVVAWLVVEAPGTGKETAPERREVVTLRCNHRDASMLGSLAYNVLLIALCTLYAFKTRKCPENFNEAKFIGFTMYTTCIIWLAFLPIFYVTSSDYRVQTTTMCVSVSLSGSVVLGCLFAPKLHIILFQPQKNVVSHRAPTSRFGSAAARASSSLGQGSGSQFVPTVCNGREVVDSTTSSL
quantity kind: EC50

State EC50 (Metabotropic glutamate receptor 2 (Homo sapiens, UniProt Q14416)) of CC(=O)c1ccc(OCc2ccc(Oc3cc(-c4nn[nH]n4)ccn3)cc2)c(C)c1O .
> 25 µM

* * *

# measurement target: UniProt:Q13639
# Sequence (Q13639 whole entry): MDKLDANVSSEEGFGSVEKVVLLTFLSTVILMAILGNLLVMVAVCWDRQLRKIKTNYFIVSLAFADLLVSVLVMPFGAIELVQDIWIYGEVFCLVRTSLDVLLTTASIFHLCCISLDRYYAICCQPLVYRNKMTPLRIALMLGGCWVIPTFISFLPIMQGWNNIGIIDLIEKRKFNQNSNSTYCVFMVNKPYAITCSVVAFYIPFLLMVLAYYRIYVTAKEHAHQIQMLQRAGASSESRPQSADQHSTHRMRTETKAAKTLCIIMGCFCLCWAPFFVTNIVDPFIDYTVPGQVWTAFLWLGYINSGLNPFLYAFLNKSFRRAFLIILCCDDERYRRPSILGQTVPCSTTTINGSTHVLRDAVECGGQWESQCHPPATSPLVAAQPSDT
# assay summary: Displacement of human recombinant 5HT4E receptor expressed in CHO cells after 60 mins by scintillation counting method
quantity kind: Ki

Given the compound CC(=O)c1ccc(OCc2ccc(Oc3cc(-c4nn[nH]n4)ccn3)cc2)c(C)c1O , write its reported Ki.
> 6.31 µM

* * *

# assay summary: Half life in rat at 1 mg/kg, po
# Format: ADME, organism-based
# run parameters: in vivo
quantity kind: half-life (h)
Answers are plain numbers, in h.

Given the compound CC(=O)c1ccc(OCc2ccc(Oc3cc(-c4nn[nH]n4)ccn3)cc2)c(C)c1O , write its reported half-life.
8

* * *

# measurement target: 5-hydroxytryptamine receptor 1B (Homo sapiens)
# Sequence (P28222 whole entry): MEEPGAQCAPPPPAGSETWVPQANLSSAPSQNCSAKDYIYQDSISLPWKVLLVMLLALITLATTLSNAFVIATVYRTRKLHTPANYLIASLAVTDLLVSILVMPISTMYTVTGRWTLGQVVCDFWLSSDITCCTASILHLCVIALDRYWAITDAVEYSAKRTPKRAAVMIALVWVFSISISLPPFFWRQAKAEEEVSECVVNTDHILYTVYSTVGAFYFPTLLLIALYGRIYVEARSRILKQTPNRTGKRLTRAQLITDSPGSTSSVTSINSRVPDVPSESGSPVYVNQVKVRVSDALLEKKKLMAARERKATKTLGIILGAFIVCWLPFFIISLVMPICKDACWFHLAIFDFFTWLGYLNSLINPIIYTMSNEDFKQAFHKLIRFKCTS
pKi: −log10 of the molar value.
quantity kind: pKi

Given the compound CC(=O)c1ccc(OCc2ccc(Oc3cc(-c4nn[nH]n4)ccn3)cc2)c(C)c1O , write its reported pKi.
< 5.45

* * *

Assignment: determine reported Emax for the given molecules.
# measurement target: UniProtKB Q14416
# assay summary: Positive allosteric modulation of recombinant human mGlu2 receptor expressed in hamster AV12 cells expressing EAAT1 assessed as potentiation of glutamate-induced intracellular calcium level measured after 24 to 48 hrs by FLIPR assay relative to glutamate
# Assay type: functional, cell-based
# Sequence (Q14416 19-872 limits assumed): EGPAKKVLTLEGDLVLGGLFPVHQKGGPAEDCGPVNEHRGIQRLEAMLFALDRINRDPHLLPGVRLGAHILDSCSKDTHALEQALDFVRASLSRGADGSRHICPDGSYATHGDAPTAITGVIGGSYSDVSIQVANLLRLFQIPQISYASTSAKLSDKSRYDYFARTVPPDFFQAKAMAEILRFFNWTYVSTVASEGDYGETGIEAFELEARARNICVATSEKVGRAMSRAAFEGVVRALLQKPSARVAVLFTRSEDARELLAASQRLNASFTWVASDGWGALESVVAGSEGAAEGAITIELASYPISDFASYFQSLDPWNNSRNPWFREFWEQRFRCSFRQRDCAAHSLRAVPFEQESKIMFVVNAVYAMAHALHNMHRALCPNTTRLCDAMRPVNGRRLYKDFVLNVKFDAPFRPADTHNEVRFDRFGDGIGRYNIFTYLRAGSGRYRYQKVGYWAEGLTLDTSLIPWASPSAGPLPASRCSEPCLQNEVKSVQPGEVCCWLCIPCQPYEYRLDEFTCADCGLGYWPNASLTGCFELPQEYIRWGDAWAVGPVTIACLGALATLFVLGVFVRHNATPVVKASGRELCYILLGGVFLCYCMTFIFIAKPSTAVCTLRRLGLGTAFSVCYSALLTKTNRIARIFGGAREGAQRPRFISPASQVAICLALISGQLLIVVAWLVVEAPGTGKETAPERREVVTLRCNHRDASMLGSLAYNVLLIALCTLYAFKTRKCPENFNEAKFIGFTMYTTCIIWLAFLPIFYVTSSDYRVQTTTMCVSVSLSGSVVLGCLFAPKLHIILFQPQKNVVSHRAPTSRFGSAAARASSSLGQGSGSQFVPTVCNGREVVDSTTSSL
Answers are plain numbers, in %.

{"columns": ["compound", "Emax, %"],
 "data": [
  ["CC(=O)c1ccc(OCc2cccc(Oc3cc(-c4nn[nH]n4)ccn3)c2)c(Cl)c1O", 101],
  ["CC(=O)c1ccc(OCc2cccc(Oc3ccc(-c4nn[nH]n4)cn3)c2)c(F)c1O", 91],
  ["CC(=O)c1ccc(OCc2cccc(Oc3cc(-c4nn[nH]n4)ccn3)c2)c(C(F)(F)F)c1O", 81],
  ["CCCc1c(OCc2cccc(Oc3ccc(-c4nn[nH]n4)cn3)c2)ccc(C(C)=O)c1O", 80]
]}

Given the molecule CC(=O)c1ccc(OCc2ccc(Oc3cccc(-c4nn[nH]n4)c3)cc2)c(C)c1O , write its reported Emax.
85

* * *

# assay summary: Cmax in dog at 0.5 mg/kg, iv
# Format: ADME, organism-based, Canis lupus familiaris
# Parameters: dose 0.5 mg/kg, route intravenous
# run parameters: in vivo
quantity kind: Cmax
Answer as a quantity: numeral, then unit.

Given the molecule CC(=O)c1ccc(OCc2ccc(Oc3cc(-c4nn[nH]n4)ccn3)cc2)c(C)c1O , write its reported Cmax.
2540 ng/mL

* * *

# assay summary: Volume of distribution in dog at 0.5 mg/kg, iv
# Format: ADME, organism-based, Canis lupus familiaris
# run parameters: in vivo
quantity kind: Vd (L/kg)
Numbers only, in L/kg.

Given the molecule CC(=O)c1ccc(OCc2ccc(Oc3cc(-c4nn[nH]n4)ccn3)cc2)c(C)c1O , write its reported Vd.
2

* * *

# measurement target: Cysteinyl leukotriene receptor 1 (Homo sapiens, UniProt Q9Y271)
# Sequence (Q9Y271 whole entry): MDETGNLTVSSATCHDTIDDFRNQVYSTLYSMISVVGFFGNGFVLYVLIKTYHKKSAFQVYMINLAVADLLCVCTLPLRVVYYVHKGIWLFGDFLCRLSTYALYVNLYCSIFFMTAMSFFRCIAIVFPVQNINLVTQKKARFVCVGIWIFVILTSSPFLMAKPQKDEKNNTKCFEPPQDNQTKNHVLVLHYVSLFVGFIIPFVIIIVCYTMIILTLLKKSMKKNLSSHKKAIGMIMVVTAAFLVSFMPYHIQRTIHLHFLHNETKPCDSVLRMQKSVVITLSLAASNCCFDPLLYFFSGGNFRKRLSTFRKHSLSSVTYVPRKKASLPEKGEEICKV
# assay summary: Antagonist activity at human CysLT1 receptor expressed in Syrian hamster AV12-664 cells assessed as decrease in LTD4-induced intracellular calcium level pretreated followed by LTD4 addition by fluo-3 dye based FLIPR assay
Assignment: determine reported pIC50 for the given compounds.
One number for each entry, as −log10 of the molar value.

As a guide, the following entries are already answered.
{"columns": ["compound", "measurement target", "pIC50"],
 "data": [
  ["CC(=O)c1ccc(OCc2cccc(Oc3cc(-c4nn[nH]n4)ccn3)c2)c(C(F)(F)F)c1O", "Cysteinyl leukotriene receptor 1 (Homo sapiens, UniProt Q9Y271)", 6.95],
  ["CCCc1c(OCc2cccc(Oc3cc(-c4nn[nH]n4)ccn3)c2)ccc(C(C)=O)c1O", "Cysteinyl leukotriene receptor 1 (Homo sapiens, UniProt Q9Y271)", 7.20],
  ["CCCc1c(OCc2ccc(Oc3ccc(-c4nn[nH]n4)cn3)cc2)ccc(C(C)=O)c1O", "Cysteinyl leukotriene receptor 1 (Homo sapiens, UniProt Q9Y271)", 6.46]
]}

List reported pIC50 for each of these compounds:
1. CC(=O)c1ccc(OCc2cccc(Oc3ccc(-c4nn[nH]n4)cn3)c2)c(C(F)(F)F)c1O
2. CCCc1c(OCc2cccc(Oc3ccc(-c4nn[nH]n4)cn3)c2)ccc(C(C)=O)c1O

1: 6.84; 2: 6.69
